Entry source: PubChem BioAssay (NCI)

test system: UACC-62 melanoma; assay: NCI tumour cell line growth inhibition, 48 h
Observed property: TGI

## Task Need TGI of `COc1ccccc1C1(c2c(OC)c(=O)c2=O)SCCCS1` , thanks.
## Result > 100 µM

## Task What measured TGI goes with CCN1CCC(CNC(=O)c2ccc(N)cc2)N1CC (stereo unspecified) ?
## Result > 100 µM

## Task Quick one: TGI of Brc1cccc(C2ON=C(c3ccccc3)N2C23CC4CC(CC(C4)C2)C3)c1 (stereo unspecified) ?
## Result > 10 µM

## Task What does the record list as TGI for COC1CC(N)C(O)C(C)O1 (stereo unspecified) ?
## Result > 100 µM

## Task Entry under review: `COc1nc2ccc(COc3ccc(C(=O)O)cc3)cc2nc1OC` . Reported TGI?
## Result > 100 µM

## Task Returns the measured TGI for the input compound. Input: CC(C)C1=CC(=O)[C@@](C)(C2[C@H](O)C[C@@]3(C)[C@@H]4CC=C5[C@@H](CC[C@@H](OC6OCC(O)C(O)C6OC6OC(C)C(O)C(O)C6O)C5(C)C)[C@]4(C)C(=O)C[C@]23C)O1 (stereo partly specified)
## Result > 100 µM
